Data credit: paper PMC6436931

# Subject of test: Rna14;Rna15;Pcf11;Clp1 (Saccharomyces cerevisiae;Saccharomyces …, UniProt P25298;P25299;P39081;Q08685 1-677;1-296;1-626;1-445, |||)
# Sequence (P25298 whole entry, chain 1 of 4): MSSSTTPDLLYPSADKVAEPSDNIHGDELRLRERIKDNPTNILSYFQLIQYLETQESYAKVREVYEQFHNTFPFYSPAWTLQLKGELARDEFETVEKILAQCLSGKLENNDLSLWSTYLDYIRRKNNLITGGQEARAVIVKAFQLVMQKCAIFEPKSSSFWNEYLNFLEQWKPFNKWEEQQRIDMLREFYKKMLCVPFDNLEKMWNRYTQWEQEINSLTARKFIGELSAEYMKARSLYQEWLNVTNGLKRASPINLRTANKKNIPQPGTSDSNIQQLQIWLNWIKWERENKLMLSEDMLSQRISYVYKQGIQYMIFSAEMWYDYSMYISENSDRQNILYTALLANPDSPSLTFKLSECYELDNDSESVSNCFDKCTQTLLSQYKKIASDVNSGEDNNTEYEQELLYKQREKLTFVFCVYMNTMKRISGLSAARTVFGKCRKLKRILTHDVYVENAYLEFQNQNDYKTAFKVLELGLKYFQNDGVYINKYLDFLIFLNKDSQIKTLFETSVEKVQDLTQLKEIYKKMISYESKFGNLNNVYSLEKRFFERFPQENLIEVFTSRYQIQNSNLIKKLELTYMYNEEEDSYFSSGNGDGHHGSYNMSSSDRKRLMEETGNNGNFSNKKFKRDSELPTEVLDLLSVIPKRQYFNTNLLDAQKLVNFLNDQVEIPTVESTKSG
# Sequence (P25299 whole entry, chain 2 of 4): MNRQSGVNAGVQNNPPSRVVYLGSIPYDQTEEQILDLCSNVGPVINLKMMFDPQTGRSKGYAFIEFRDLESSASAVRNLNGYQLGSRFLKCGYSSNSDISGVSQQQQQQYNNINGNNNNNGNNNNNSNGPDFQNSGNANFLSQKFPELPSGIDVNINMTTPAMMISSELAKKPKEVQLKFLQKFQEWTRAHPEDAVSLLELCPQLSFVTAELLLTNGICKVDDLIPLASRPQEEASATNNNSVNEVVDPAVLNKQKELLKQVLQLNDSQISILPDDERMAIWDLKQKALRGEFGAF
# Sequence (P39081 whole entry, chain 3 of 4): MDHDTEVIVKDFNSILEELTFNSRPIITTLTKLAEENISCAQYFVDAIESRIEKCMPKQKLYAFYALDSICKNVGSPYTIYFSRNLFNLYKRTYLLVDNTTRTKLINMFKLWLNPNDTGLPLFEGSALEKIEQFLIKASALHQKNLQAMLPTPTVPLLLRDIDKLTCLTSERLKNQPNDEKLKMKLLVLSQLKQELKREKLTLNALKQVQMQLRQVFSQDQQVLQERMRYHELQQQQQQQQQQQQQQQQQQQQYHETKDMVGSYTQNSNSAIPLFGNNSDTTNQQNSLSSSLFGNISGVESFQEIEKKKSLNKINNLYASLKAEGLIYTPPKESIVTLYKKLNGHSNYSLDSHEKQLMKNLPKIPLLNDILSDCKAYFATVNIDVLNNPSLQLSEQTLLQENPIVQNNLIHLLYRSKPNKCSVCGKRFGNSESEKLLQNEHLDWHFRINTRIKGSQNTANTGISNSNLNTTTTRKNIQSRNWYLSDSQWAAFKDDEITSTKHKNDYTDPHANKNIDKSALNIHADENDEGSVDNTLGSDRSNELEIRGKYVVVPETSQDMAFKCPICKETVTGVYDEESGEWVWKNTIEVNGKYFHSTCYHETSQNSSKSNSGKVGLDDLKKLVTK
# Sequence (Q08685 whole entry, chain 4 of 4): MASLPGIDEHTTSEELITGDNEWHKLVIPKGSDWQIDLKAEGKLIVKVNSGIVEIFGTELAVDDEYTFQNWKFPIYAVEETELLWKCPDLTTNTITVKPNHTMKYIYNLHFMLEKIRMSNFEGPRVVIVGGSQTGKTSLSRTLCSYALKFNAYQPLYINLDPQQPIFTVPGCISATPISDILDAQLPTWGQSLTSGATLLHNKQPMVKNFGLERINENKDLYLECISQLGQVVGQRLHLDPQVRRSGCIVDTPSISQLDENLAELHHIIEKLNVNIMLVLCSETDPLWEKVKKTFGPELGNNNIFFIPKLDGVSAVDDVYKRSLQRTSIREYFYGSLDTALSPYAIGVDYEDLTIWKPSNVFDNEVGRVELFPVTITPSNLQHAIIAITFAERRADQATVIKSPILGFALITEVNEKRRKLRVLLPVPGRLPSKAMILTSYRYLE
# Test details: EMSA; CF IA; EMSA: 50 nM RNA, 0.25-4.0 uM protein, protein diluted in 10 mM HEPES pH 7.9, 150 mM NaCl, 0.5 mM Mg(OAc)2, plus 1x loading dye (orange G, glycerol, EDTA); 30 min on ice; native 6% acrylamide/TBE PAGE
# Condition set: protein: recombinant;recombinant;recombinant;recombinant; tags: 6H;;6H;; chain copies: 2;2;1;1; label: 5'-FAM

{"columns": ["Binder", "binding result"],
 "data": [
  ["AAAAAAAAAAAAAAA (ssRNA) [A15]", "no binding"],
  ["AAGAACGUUAUUUAUAUUUCAAAUUUUUCUUUUUU (ssRNA) [CYC1d EMSA probe]", "binds"],
  ["GGGGGGGGGGGGGGG (ssRNA) [G15]", "binds"],
  ["UUUUUUUUUUUUUUU (ssRNA) [U15]", "binds"],
  ["CGUUAUUUAUAUUUCAAAUUUUUCU (ssRNA) [CYC1f EMSA probe]", "binds"],
  ["CCCCCCCCCCCCCCC (ssRNA) [C15]", "no binding"]
]}
